molecular target: ATR/ATRIP complex (Homo sapiens (Human), UniProt Q13535); test: ATR/ATRIP enzymatic assay (Caliper-based); conditions: FAM-labeled RAD17 peptide, ATP; read-out: ATR/ATRIP Enzyme IC50
Sequence (Q13535 whole entry): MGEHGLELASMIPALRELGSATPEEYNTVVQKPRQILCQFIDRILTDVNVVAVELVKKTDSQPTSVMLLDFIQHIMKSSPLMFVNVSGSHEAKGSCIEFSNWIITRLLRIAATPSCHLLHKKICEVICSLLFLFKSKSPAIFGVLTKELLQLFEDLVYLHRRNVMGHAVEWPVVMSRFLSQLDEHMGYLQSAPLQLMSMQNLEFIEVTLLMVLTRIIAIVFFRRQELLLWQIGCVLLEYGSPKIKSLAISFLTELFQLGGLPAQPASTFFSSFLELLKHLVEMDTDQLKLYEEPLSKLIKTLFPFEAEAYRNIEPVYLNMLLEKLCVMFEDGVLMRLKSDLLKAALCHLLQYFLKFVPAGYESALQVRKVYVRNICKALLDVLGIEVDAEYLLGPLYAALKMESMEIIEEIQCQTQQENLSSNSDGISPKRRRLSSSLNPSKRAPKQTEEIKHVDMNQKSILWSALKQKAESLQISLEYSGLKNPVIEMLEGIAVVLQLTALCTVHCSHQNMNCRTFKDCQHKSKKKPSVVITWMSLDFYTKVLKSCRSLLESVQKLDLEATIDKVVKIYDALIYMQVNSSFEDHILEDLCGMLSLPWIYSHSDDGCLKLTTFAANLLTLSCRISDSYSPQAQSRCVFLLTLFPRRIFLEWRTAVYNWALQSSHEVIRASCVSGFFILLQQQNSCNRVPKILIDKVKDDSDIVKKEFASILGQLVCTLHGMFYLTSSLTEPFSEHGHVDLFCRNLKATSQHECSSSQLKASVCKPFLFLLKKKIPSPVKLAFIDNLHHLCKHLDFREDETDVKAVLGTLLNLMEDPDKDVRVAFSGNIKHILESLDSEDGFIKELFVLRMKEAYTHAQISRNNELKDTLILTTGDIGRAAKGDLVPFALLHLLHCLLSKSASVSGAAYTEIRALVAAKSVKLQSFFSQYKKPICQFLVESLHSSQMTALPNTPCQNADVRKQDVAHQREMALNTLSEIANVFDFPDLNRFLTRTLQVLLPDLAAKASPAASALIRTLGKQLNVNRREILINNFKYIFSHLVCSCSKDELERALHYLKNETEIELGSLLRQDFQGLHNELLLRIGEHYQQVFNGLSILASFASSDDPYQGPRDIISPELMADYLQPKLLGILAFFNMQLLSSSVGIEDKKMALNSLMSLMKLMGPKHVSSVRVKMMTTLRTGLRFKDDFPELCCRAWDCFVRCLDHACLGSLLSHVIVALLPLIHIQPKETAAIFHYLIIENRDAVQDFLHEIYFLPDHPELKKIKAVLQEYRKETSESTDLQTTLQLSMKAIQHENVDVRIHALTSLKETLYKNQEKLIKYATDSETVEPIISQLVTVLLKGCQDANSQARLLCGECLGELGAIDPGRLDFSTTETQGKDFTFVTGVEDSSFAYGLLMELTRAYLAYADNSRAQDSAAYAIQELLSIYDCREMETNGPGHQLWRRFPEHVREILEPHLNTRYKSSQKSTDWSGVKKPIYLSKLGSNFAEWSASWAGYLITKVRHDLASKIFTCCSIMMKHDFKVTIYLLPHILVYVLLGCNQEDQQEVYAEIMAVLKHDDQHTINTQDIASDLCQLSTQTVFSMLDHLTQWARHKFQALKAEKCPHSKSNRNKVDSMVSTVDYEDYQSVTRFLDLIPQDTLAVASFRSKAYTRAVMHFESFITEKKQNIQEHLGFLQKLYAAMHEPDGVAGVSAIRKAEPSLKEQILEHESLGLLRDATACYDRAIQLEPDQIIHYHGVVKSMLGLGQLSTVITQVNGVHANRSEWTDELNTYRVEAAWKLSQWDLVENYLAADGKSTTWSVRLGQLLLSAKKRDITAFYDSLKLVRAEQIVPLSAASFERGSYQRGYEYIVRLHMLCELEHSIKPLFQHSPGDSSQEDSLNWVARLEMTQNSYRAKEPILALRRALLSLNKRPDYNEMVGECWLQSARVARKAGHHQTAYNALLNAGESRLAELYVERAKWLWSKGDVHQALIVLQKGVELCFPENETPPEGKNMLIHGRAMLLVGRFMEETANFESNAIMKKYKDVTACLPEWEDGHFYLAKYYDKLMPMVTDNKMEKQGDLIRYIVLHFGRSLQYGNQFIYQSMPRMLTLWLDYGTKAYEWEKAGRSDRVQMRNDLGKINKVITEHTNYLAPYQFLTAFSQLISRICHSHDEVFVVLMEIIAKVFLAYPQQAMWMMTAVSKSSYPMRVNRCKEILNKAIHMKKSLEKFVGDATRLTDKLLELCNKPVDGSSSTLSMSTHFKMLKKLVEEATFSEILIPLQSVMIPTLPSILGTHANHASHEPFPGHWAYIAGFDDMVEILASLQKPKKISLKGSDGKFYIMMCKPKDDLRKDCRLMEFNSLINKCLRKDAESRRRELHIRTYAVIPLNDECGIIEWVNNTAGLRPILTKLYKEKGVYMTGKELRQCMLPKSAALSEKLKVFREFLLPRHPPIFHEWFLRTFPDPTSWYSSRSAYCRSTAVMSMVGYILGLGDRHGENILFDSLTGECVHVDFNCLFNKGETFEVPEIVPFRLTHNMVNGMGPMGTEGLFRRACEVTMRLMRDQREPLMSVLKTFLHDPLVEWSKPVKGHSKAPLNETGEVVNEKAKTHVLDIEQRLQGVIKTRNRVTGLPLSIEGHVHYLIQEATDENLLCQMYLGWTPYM
Sequence (Q8WXE1 whole entry partner): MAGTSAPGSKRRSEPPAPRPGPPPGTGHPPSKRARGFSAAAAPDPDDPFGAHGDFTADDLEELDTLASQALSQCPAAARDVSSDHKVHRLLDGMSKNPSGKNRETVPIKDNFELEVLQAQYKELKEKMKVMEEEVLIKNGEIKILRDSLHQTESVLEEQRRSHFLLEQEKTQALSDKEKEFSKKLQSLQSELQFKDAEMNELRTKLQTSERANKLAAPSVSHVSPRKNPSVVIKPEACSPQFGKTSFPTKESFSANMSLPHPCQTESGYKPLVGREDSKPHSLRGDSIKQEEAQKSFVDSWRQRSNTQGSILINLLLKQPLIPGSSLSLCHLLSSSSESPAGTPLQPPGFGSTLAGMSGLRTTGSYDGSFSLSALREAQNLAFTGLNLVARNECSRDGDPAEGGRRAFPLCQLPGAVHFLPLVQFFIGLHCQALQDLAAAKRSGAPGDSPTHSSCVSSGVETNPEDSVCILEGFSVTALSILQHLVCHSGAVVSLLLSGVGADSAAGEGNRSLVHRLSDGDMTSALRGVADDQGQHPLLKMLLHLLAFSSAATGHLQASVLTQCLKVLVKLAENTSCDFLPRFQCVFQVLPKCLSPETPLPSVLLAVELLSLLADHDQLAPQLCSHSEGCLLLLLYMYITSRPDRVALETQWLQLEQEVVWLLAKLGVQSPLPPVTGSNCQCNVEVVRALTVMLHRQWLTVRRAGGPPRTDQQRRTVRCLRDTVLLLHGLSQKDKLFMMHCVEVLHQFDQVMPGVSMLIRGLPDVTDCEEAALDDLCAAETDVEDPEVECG
I'd be grateful if you could share measured pIC50 for these entries.
One number for each entry, as −log10 of the molar value.

C[C@@H]1COCCN1c1cc(C2CCOCC2)nc(-c2ccnc3[nH]ccc23)n1
7.77
COC(=O)N1CCC(c2cc(N3CCOC[C@H]3C)nc(-c3ccnc4[nH]ccc34)n2)C1 (some centres unmarked)
8.00
COCC(=O)N1CCC(c2cc(N3CCOC[C@H]3C)nc(-c3ccnc4[nH]ccc34)n2)CC1
7.89
C[C@@H]1COCCN1c1cc(N2CCCN(C)S2(=O)=O)nc(-c2cc(Cl)nc3[nH]ccc23)n1
7.28
CC(C)OC(=O)N1CCC(c2cc(N3CCOC[C@H]3C)nc(-c3ccnc4[nH]ccc34)n2)CC1
7.82
C[C@@H]1COCCN1c1cc(C2CCN(C(=O)OCC3CC3)CC2)nc(-c2ccnc3[nH]ccc23)n1
7.77

Your task in this section: give pIC50 for each listed record.
1. COC(=O)N1CCC(c2cc(N3CCOC[C@H]3C)nc(-c3ccnc4[nH]ccc34)n2)CC1
2. C[C@@H]1COCCN1c1cc(C2CCCCS2(=O)=O)nc(-c2ccnc3[nH]ccc23)n1 (some centres unmarked)

Solution:
1: 8.00; 2: 8.10

====

target: ATR/ATRIP complex (Homo sapiens (Human)); test: ATR/ATRIP enzymatic assay (Caliper-based); details: FAM-labeled RAD17 peptide, ATP; read-out: ATR/ATRIP Enzyme IC50
I'd appreciate it if you could supply pIC50 values for the items below.
Numbers only, as −log10 of the molar value.

# annotated cases, reported pIC50 shown
CNC(=O)N1CCC(c2cc(N3CCOC[C@H]3C)nc(-c3ccnc4[nH]ccc34)n2)C1 (stereo partly shown) [Example 18]
7.85
CCOC(=O)N1CCC(c2cc(N3CCOC[C@H]3C)nc(-c3ccnc4[nH]ccc34)n2)CC1 [Example 22]
7.82

Your task in this section: give pIC50 for each listed record.
1. CCN1CCCN(c2cc(N3CCOC[C@H]3C)nc(-c3cc(Cl)nc4[nH]ccc34)n2)S1(=O)=O [Example 9]
2. C[C@@H]1COCCN1c1cc(C2CCCS2(=O)=O)nc(-c2cc(Cl)nc3[nH]ccc23)n1 (single isomer, unassigned) [Example 5a]
3. C[C@@H]1COCCN1c1cc(C2(C)CCCS2(=O)=O)nc(-c2ccnc3[nH]ccc23)n1 (stereo partly shown) [Example 29]

Solution:
6.94
7.51
8.10

Hi, could you look up pIC50 for each item in my list?
1. C[C@@H]1COCCN1c1cc(C2CCN(C(=O)CC3CC3)CC2)nc(-c2ccnc3[nH]ccc23)n1 [Example 25]
2. CCC(=O)N1CCC(c2cc(N3CCOC[C@H]3C)nc(-c3ccnc4[nH]ccc34)n2)CC1 [Example 20]

Solution:
1. 7.80
2. 7.82

====

target: ATR/ATRIP complex (Homo sapiens (Human)); experiment: ATR/ATRIP enzymatic assay (Caliper-based); type: biochemical; details: FAM-labeled RAD17 peptide, ATP; read-out: ATR/ATRIP Enzyme IC50
MEASUREMENT_TYPE: IC50 (nM)
Answers are plain numbers, in nM.

# count of solved cases: 4
C[C@@H]1COCCN1c1cc([C@]2(C)CCCS2(=O)=O)nc(-c2ccnc3[nH]ccc23)n1 [Example 30a]
6
C[C@@H]1COCCN1c1cc([C@@]2(C)CCCS2(=O)=O)nc(-c2ccnc3[nH]ccc23)n1 [Example 30b]
6
C[C@@H]1COCCN1c1cc(C2CCN(S(C)(=O)=O)C2)nc(-c2ccnc3[nH]ccc23)n1 (some centres unmarked)
8
CCN1CCCN(c2cc(N3CCOC[C@H]3C)nc(-c3ccnc4[nH]ccc34)n2)S1(=O)=O
7

Each compound below has a reported value. Please supply its IC50.
1. C[C@@H]1COCCN1c1cc(C2CCCN(S(C)(=O)=O)C2)nc(-c2ccnc3[nH]ccc23)n1 (some centres unmarked)
2. CC(=O)N1CCC(c2cc(N3CCOC[C@H]3C)nc(-c3ccnc4[nH]ccc34)n2)CC1

Solution:
1: 7; 2: 24

# per-item lookup of IC50; items listed below
1. C[C@@H]1COCCN1c1cc(C2CCCN(C)C2=O)nc(-c2ccnc3[nH]ccc23)n1 (some centres unmarked)
2. CC(C)N1CCCN(c2cc(N3CCOC[C@H]3C)nc(-c3ccnc4[nH]ccc34)n2)S1(=O)=O

Solution:
1. 47
2. 7

====

target: ATR/ATRIP complex (Homo sapiens (Human), UniProt Q13535); assay: ATR/ATRIP enzymatic assay (Caliper-based); type: biochemical; conditions: FAM-labeled RAD17 peptide, ATP; read-out: ATR/ATRIP Enzyme IC50
pIC50: −log10 of the molar value.
Tick label 1 if pIC50 is 8 or greater. Tick label 0 if pIC50 is less than 8.

Worked examples follow.
C[C@@H]1COCCN1c1cc([C@H]2CCCS2(=O)=O)nc(-c2cc(Cl)nc3[nH]ccc23)n1 (single isomer, unassigned)
label 0
C[C@@H]1COCCN1c1cc(C2CCN(C)C2=O)nc(-c2ccnc3[nH]ccc23)n1 (stereo partly drawn)
label 0
C[C@@H]1COCCN1c1cc(C2CCN(C(=O)C3CC3)CC2)nc(-c2ccnc3[nH]ccc23)n1
label 0

Problem: Does CC(=O)N1CCC(c2cc(N3CCOC[C@H]3C)nc(-c3ccnc4[nH]ccc34)n2)C1 (stereo partly drawn) have a reported pIC50 of at least 8?
Solution: label 0

Problem: Does the reported pIC50 for C[C@@H]1COCCN1c1cc(C2CCN(S(=O)(=O)C3CC3)CC2)nc(-c2ccnc3[nH]ccc23)n1 fall at or above the 8 mark?
Solution: label 1
